protocol_details: Plasma stability in human plasma
Format: in vitro ADME
condition_summary: human, plasma; from 60 minutes incubation; read-out: calculated half-life in human plasma
parameter: half-life at 100 μg/ml (h)
Numbers only, in h.

Query H-FAKKFAKKFK-OH [IS217] yields half-life at 100 μg/ml of 6.92

----------
protocol_details: Plasma stability in human plasma
Format: in vitro ADME
condition_summary: human plasma, 30 minutes; read-out: IS217 remaining
parameter: remaining at 0.5 h, 100 μg/ml (%)
Give bare numbers, in %.

Query H-FAKKFAKKFK-OH [IS217] yields remaining at 0.5 h, 100 μg/ml of 105

----------
target_entity: CYP1A2 (Homo sapiens)
Construct: purchased
Sequence (P05177 whole entry): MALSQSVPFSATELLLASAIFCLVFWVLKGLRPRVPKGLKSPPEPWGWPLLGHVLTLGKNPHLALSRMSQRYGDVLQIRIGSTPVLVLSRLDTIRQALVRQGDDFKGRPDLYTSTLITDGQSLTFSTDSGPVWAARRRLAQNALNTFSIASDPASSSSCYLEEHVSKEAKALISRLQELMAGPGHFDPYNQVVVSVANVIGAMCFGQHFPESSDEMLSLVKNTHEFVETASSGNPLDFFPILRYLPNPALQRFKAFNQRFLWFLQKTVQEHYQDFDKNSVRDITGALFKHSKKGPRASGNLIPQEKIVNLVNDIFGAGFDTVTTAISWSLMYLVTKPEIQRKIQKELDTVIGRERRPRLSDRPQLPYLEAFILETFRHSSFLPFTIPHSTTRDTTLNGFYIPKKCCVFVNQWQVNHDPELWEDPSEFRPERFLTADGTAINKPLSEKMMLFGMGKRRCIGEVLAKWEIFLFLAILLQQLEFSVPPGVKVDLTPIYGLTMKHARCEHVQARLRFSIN
protocol_details: in vitro
Format: in vitro ADME
parameter: inhibition at 10 μg/mL

Query H-FAKKFAKKFK-OH [IS217] yields inhibition at 10 μg/mL of < 20%

----------
Test system: human plasma proteins
protocol_details: in vitro
condition_summary: free fraction
parameter: fraction unbound at 1 hour, 100 μg/ml
Numbers only.

Query H-FAKKFAKKFK-OH [IS217] yields fraction unbound at 1 hour, 100 μg/ml of 0.466

----------
protocol_details: Plasma stability in human plasma
Type: in vitro ADME
condition_summary: human plasma, 15 minutes; read-out: IS217 remaining
parameter: remaining at 0.25 h, 100 μg/ml (%)
Numbers only, in %.

Query H-FAKKFAKKFK-OH [IS217] yields remaining at 0.25 h, 100 μg/ml of 90.7

----------
protocol_details: in vitro
condition_summary: human, microsomes
parameter: microsomal CLint at 100 μg/ml (µL/min/mg)
Numbers only, in µL/min/mg.

Query H-FAKKFAKKFK-OH [IS217] yields microsomal CLint at 100 μg/ml of 14.5

----------
protocol_details: in vitro
condition_summary: human, microsomes
parameter: half-life at 100 μg/ml (min)
Numbers only, in min.

Query H-FAKKFAKKFK-OH [IS217] yields half-life at 100 μg/ml of 47.9

----------
Test system: human plasma proteins
protocol_details: in vitro
parameter: fraction unbound at 1 hour, 100 μg/ml

Tested on human plasma proteins, the item H-FAKKFAKKFK-OH [IS217] showed fraction unbound at 1 hour, 100 μg/ml equal to 0.466

----------
protocol_details: Plasma stability in human plasma
Format: in vitro ADME
condition_summary: human plasma, 45 minutes; read-out: IS217 remaining
Protocol: Following centrifugation, the supernatant was analyzed on HPLC-UV.
parameter: remaining at 0.75 h, 100 μg/ml
Quick note: unit goes after the number.

Query H-FAKKFAKKFK-OH [IS217] yields remaining at 0.75 h, 100 μg/ml of 85.2%

----------
protocol_details: in vitro
condition_summary: human, microsomes
parameter: metabolised at 1 h, 100 μg/ml

Query H-FAKKFAKKFK-OH [IS217] yields metabolised at 1 h, 100 μg/ml of ~58%

----------
target_entity: CYP2C9 (Homo sapiens, UniProt P11712)
Construct: purchased
Sequence (P11712 whole entry): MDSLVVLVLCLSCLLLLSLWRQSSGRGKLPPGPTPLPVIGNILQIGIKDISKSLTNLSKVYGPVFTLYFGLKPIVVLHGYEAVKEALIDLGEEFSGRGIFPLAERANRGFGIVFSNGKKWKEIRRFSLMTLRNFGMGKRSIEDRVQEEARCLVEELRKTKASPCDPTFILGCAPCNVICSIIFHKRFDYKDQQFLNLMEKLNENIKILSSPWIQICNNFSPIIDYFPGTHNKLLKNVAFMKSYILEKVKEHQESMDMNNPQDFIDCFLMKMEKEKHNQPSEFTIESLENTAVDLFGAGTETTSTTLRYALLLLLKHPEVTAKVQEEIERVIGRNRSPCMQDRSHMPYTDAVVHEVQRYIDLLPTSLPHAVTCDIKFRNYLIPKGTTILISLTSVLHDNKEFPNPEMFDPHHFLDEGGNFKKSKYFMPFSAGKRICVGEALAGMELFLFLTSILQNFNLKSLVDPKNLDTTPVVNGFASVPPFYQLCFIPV
protocol_details: in vitro
Format: in vitro ADME
parameter: inhibition at 10 μg/mL

Query H-FAKKFAKKFK-OH [IS217] yields inhibition at 10 μg/mL of < 20%
